system_name: TNFα / TNFα receptor (TNFα R1/Fc) (Homo sapiens)
Construct: purchased R&D Systems
Sequence (P01375 77-233 limits assumed, species assumed): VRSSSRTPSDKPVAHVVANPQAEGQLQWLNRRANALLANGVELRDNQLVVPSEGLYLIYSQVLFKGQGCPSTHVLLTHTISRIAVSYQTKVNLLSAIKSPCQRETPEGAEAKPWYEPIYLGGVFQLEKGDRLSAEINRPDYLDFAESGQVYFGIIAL
experimental_details: Inhibition of binding of TNFα to the TNFα receptor (plate ELISA competition)
assay_context: Table 2; read-out: Activity (IC50, inhibition of TNFα binding to TNFα R1/Fc)
Numbered stars: 1 amine (or outer) side, 2 acyl side, 3 side chain; on linkers, the order of the positions; unused ones are H or OH. Bridge positions count the residues as written; N and C are the ends. Square brackets hold non-standard residues; d marks the D form. Peptide text beside a SMILES is read from it. Phe(4-CF3) = N[C@@H](Cc1ccc(C(F)(F)F)cc1)C(=O)O; Phe(4-COOH) = N[C@@H](Cc1ccc(C(=O)O)cc1)C(=O)O; Bip = N[C@@H](Cc1ccc(-c2ccccc2)cc1)C(=O)O; dPhe(2-CN) = N#Cc1ccccc1C[C@@H](N)C(=O)O; Phe(4-NH2) = Nc1ccc(C[C@H](N)C(=O)O)cc1; d(hPhe) = N[C@H](CCc1ccccc1)C(=O)O; hPhe = N[C@@H](CCc1ccccc1)C(=O)O; d3Pal = N[C@H](Cc1cccnc1)C(=O)O; d2Thi = N[C@H](Cc1cccs1)C(=O)O; Suc = O=C(CCC(=O)[*:2])[*:1]; βAla = NCCC(=O)O
Each item that follows carries a reported IC50.

Example entries begin here.
>  <compound>
O=C1CCC(=O)N[C@H](Cc2cccs2)C(=O)N[C@@H](Cc2ccc(-c3ccccc3)cc2)C(=O)N[C@H](Cc2cccs2)C(=O)N[C@H](C(=O)O)Cc2ccc(cc2)N1 [Compound 74] ([d2Thi][Bip][d2Thi][Phe(4-NH2)]-OH; linker N-4 via Suc)

>  <test_value>
30 to 100 µM

$$$$
>  <compound>
O=C1CCC(=O)N[C@H](Cc2cccs2)C(=O)N[C@@H](Cc2ccc(-c3ccccc3)cc2)C(=O)N[C@H](Cc2cccnc2)C(=O)N[C@H](C(=O)O)Cc2ccc(cc2)N1 [Compound 51] ([d2Thi][Bip][d3Pal][Phe(4-NH2)]-OH; linker N-4 via Suc)

>  <test_value>
> 100 µM

$$$$
>  <compound>
N#Cc1ccccc1C[C@H]1NC(=O)[C@H](Cc2ccc(C(F)(F)F)cc2)NC(=O)[C@@H](CCc2ccccc2)NC(=O)CCC(=O)Nc2ccc(cc2)C[C@@H](C(=O)O)NC1=O [Compound 225] ([d(hPhe)][Phe(4-CF3)][dPhe(2-CN)][Phe(4-NH2)]-OH; linker N-4 via Suc)

>  <test_value>
> 100 µM

$$$$
>  <compound>
O=C1N[C@H](Cc2ccccc2)C(=O)N[C@@H](C(=O)O)Cc2ccc(cc2)NC(=O)[C@H](O)[C@@H](O)C(=O)N[C@H](Cc2cccs2)C(=O)N[C@H]1Cc1ccc(Cl)cc1Cl

>  <test_value>
30 to 100 µM

$$$$
>  <compound>
O=C1CCNC(=O)c2ccc(cc2)C[C@@H](C(=O)O)NC(=O)[C@H](Cc2ccccc2)NC(=O)[C@H](Cc2ccc(-c3ccccc3)cc2)NC(=O)[C@H](CCc2ccccc2)N1 [Compound 463] ([βAla][hPhe][Bip]F[Phe(4-COOH)]-OH; lactam N-5)

>  <test_value>
> 100 µM

$$$$

Record request: IC50 value, item O=C1COc2ccc(cc2)C[C@@H](C(=O)O)NC(=O)[C@@H](Cc2ccccc2)NC(=O)[C@H](Cc2ccc(-c3ccccc3)cc2)NC(=O)[C@@H](Cc2cccs2)N1 30 to 100 µM

Record request: IC50 value, item O=C1COc2ccc(cc2)C[C@@H](C(=O)O)NC(=O)[C@H](CCc2ccccc2)NC(=O)[C@H](Cc2ccc(-c3ccccc3)cc2)NC(=O)[C@H](Cc2cccs2)N1 10 to 30 µM

Record request: IC50 value, item CS(=O)(=O)NC(=O)[C@@H]1Cc2ccc(cc2)OCC(=O)N[C@@H](Cc2ccncc2)C(=O)N[C@H](Cc2ccc(-c3ccccc3)cc2)C(=O)N[C@@H](CCc2ccccc2)C(=O)N1 10 to 30 µM

Record request: IC50 value, item O=C(O)CCCNC(=O)[C@H]1Cc2ccc(cc2)OCC(=O)N[C@@H](Cc2c[nH]c3ccccc23)C(=O)N[C@H](Cc2ccc(-c3ccccc3)cc2)C(=O)N[C@@H](Cc2c[nH]c3ccccc23)C(=O)N1 < 10 µM
